# System: HEK293
# test-summary: Cellular IC50 HEK293
# Type: cell-based
# experimental-context: Homo sapiens, HEK293; read-out: Cellular IC50 HEK293
recorded-endpoint: IC50 (nM)
The figure you give is taken to be in nM; do not add the unit.

Recorded IC50, per entry:
>>> df
                                   molecule  obs_value
0  CCOc1ccc(-c2nnc([C@H]3C[C@H](NC(=O)c4cc[n+]([O-])cc4)C3)n2-c2ccccc2F)nc1 [Example 19]         34
1  CCOc1ccc(-c2nnc([C@H]3C[C@H](NC(=O)c4cccc5nc(O)c(O)nc45)C3)n2-c2ccccc2F)nc1 [Example 3]       1250

# input for lookup
*Q* Form field: reported IC50 of CCOc1ccc(-c2nnc([C@H]3C[C@H](NC(=O)c4cccc5cc(O)cnc45)C3)n2-c2ccccc2F)nc1 [Example 23]
*A* 3.6
